# assayedSystem: receptors in bovine striatum (3H-CCK-8-(SO3 H) binding, central receptor) (Bos taurus, UniProt P79266)
# Sequence (P79266 whole entry): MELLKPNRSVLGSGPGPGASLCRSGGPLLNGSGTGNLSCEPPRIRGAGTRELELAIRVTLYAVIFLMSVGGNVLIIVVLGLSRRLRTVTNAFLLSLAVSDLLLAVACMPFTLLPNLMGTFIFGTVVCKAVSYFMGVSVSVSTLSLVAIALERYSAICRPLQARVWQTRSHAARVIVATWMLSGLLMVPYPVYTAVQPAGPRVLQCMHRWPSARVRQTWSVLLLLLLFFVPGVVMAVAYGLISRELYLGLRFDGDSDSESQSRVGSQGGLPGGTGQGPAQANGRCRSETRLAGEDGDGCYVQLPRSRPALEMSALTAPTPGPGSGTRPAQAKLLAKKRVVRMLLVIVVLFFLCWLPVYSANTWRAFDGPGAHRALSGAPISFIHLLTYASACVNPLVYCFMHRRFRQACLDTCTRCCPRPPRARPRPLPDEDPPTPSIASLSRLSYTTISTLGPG
Where a SMILES comes first, the peptide text is derived from it. [ ]: non-standard residue; d: D form. The star is where a group is joined. Thr(SO3H) = C[C@@H](OS(=O)(=O)O)[C@H](N)C(=O)O; sY = N[C@@H](Cc1ccc(OS(=O)(=O)O)cc1)C(=O)O; NMeF = CN[C@@H](Cc1ccccc1)C(=O)O; Nle = CCCC[C@H](N)C(=O)O; For = O=C*
# pIC50 values compiled below
Friendly reminder that pIC50 comes from taking -log10 of the concentration in mol/L.

Solved cases below.
QUERY: Item CSCC[C@H](NC(=O)[C@H](Cc1ccc(OS(=O)(=O)O)cc1)NC(C)=O)C(=O)N[C@@H](C)C(=O)N[C@@H](Cc1c[nH]c2ccccc12)C(=O)N[C@@H](CCSC)C(=O)N[C@H](C(=O)N(C)[C@@H](Cc1ccccc1)C(N)=O)[C@@H](C)OS(=O)(=O)O [Example 6] (Ac-[sY]MAWM[Thr(SO3H)][NMeF]-NH2) has what recorded pIC50?
RESULT: 5.76

QUERY: # repeat for CSCC[C@H](NC(=O)[C@H](Cc1ccc(OS(=O)(=O)O)cc1)NC(C)=O)C(=O)N[C@@H](C)C(=O)N[C@@H](Cc1cn(C=O)c2ccccc12)C(=O)N[C@@H](CCSC)C(=O)N[C@H](C(=O)N(C)[C@@H](Cc1ccccc1)C(N)=O)[C@@H](C)OS(=O)(=O)O [Example 5] (Ac-[sY]MAW(For)M[Thr(SO3H)][NMeF]-NH2)
RESULT: 5.39

---
QUERY: Item CCCC[C@H](NC(=O)[C@H](Cc1ccc(OS(=O)(=O)O)cc1)NC(C)=O)C(=O)N[C@H](C)C(=O)N[C@@H](Cc1cn(C=O)c2ccccc12)C(=O)N[C@@H](CCSC)C(=O)N[C@H](C(=O)N(C)[C@@H](Cc1ccccc1)C(N)=O)[C@@H](C)OS(=O)(=O)O [Example 3] (Ac-[sY][Nle][dA]W(For)M[Thr(SO3H)][NMeF]-NH2) has what recorded pIC50?
RESULT: 7.00
